Target protein (sequence): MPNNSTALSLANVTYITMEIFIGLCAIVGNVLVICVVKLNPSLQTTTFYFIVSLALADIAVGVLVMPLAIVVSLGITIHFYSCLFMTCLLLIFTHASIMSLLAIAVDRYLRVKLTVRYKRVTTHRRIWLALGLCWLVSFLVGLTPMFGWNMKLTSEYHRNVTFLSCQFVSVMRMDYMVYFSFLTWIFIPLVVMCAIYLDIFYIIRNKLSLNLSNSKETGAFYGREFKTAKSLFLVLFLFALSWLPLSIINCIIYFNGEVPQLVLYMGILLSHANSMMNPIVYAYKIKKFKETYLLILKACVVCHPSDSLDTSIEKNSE
Attribute: Ki
testReadout: Ki (µM)

- Clc1cccc(CNc2nc(Cl)nc3[nH]cnc23)c1 [Compound 9]: 0.165
- Fc1ccc(C#Cc2nc(NCc3cccc(Cl)c3)c3nc[nH]c3n2)cc1F [Compound 8]: 0.12

###

# testedSystem: UniProt P35372
# Sequence (P35372 whole entry): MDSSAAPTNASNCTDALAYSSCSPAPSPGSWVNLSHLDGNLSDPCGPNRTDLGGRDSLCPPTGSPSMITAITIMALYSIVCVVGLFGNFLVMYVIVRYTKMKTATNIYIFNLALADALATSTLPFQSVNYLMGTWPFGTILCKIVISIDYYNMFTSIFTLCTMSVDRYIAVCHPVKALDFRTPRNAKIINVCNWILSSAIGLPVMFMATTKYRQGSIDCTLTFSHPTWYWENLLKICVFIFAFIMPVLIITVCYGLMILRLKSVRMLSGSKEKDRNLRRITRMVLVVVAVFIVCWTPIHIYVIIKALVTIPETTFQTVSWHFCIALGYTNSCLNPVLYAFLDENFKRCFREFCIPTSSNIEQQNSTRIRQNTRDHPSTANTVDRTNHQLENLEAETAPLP
# methodNotes: PDSP radioligand binding, µ opioid
# reportedConditions: read-out: % inhibition at 10 µM; single concentration 10 µM
Param threshold (7%) applies to inhibition at 10 µM; output label 1 when value >= threshold, label 0 when value < threshold.

* CNC(=O)[C@@]12C[C@@H]1[C@@H](n1cnc3c(NCc4cccc(Cl)c4)nc(Cl)nc31)[C@H](O)[C@@H]2O | label 0
* O[C@@H]1[C@H](O)[C@@H]2C[C@@H]2[C@H]1n1cnc2c(NCc3cccc(Cl)c3)ncnc21 | label 0
* Clc1cccc(CNc2nc(Cl)nc3[nH]cnc23)c1 | label 0
* O[C@@H]1[C@H](O)[C@@H]2C[C@@H]2[C@H]1n1cnc2c(NCc3cccc(Cl)c3)nc(C#Cc3ccc(F)c(F)c3)nc21 | label 0
* CNC(=O)[C@@]12C[C@@H]1[C@@H](n1cnc3c(NCc4cccc(Cl)c4)nc(C#Cc4ccccc4Cl)nc31)[C@H](O)[C@@H]2O | label 1
* Fc1ccc(C#Cc2nc(NCc3cccc(Cl)c3)c3nc[nH]c3n2)cc1F | label 1
* CNC(=O)[C@@]12C[C@@H]1[C@@H](n1cnc3c(NC)nc(C#Cc4ccc(F)c(F)c4)nc31)[C@H](O)[C@@H]2O | label 0
* O[C@@H]1[C@H](O)[C@@H]2C[C@@H]2[C@H]1n1cnc2c(NC(C3CC3)C3CC3)nc(Cl)nc21 | label 0

###

# testedSystem: 5HT1A serotonergic receptor (Homo sapiens)
# Sequence (P08908 1-422): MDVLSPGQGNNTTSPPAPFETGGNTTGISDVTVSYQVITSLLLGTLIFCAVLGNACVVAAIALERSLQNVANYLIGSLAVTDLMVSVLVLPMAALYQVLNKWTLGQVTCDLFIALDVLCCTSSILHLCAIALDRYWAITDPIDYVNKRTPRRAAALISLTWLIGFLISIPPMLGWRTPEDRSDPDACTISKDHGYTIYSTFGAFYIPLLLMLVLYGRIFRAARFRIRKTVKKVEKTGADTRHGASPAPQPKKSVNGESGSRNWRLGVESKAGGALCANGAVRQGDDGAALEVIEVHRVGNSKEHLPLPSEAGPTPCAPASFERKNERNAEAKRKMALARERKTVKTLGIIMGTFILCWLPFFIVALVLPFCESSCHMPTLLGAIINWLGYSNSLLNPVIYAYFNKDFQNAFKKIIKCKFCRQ
# methodNotes: PDSP radioligand binding, 5HT1A
# reportedConditions: read-out: % inhibition at 10 µM; single concentration 10 µM
testReadout: inhibition at 10 µM (%)

* O[C@@H]1[C@H](O)[C@@H]2C[C@@H]2[C@H]1n1cnc2c(NCc3cccc(Cl)c3)nc(C#Cc3ccc(F)c(F)c3)nc21 | 9
* Fc1ccc(C#Cc2nc(NCc3cccc(Cl)c3)c3nc[nH]c3n2)cc1F | 11
* Clc1cccc(CNc2nc(Cl)nc3[nH]cnc23)c1 | 12
* CNC(=O)[C@@]12C[C@@H]1[C@@H](n1cnc3c(NCc4cccc(Cl)c4)nc(Cl)nc31)[C@H](O)[C@@H]2O | 29
* O[C@@H]1[C@H](O)[C@@H]2C[C@@H]2[C@H]1n1cnc2c(NC(C3CC3)C3CC3)nc(Cl)nc21 | 4
* O[C@@H]1[C@H](O)[C@@H]2C[C@@H]2[C@H]1n1cnc2c(NCc3cccc(Cl)c3)ncnc21 | 28
* CNC(=O)[C@@]12C[C@@H]1[C@@H](n1cnc3c(NC)nc(C#Cc4ccc(F)c(F)c4)nc31)[C@H](O)[C@@H]2O | 10
* CNC(=O)[C@@]12C[C@@H]1[C@@H](n1cnc3c(NCc4cccc(Cl)c4)nc(C#Cc4ccccc4Cl)nc31)[C@H](O)[C@@H]2O | 6
* CNC(=O)[C@@]12C[C@@H]1[C@@H](n1cnc3c(NCc4cccc(Cl)c4)nc(C#Cc4ccc(F)cc4)nc31)[C@H](O)[C@@H]2O | 5
